- TARGET UNDER TEST: ERα (Homo sapiens)
- Construct: host or cells: MCF-7
- Sequence (P03372 whole entry): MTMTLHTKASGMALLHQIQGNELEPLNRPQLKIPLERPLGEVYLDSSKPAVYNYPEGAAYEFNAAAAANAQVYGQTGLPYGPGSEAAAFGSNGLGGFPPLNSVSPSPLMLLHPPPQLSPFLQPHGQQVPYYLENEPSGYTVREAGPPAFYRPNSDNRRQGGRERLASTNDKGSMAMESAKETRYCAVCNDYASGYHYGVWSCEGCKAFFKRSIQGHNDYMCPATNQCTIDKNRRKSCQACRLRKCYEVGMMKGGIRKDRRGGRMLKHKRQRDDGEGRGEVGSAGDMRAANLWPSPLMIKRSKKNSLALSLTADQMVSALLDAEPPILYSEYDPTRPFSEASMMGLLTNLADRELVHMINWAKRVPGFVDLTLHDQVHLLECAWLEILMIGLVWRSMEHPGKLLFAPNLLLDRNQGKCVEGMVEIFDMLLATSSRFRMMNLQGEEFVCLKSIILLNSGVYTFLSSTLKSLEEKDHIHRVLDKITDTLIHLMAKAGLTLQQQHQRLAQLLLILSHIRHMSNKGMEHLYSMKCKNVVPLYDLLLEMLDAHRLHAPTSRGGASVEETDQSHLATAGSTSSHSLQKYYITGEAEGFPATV
- PROTOCOL: ER degradation activity in MCF-7 cells (Western blot, grayscale intensity)
- Type: cell-based
- ASSAY SETUP: 6 hours treatment, 1 nM to 100 nM, concentration required to degrade 50% of the target protein
- Procedure: ERα-positive human breast cancer cells MCF-7 (ATCC, HTB-22) were cultured with EMEM medium (ATCC, catalog number 30-2003) containing 10% fetal bovine serum (Thermo Fisher, catalog number 10099141) and 10 µg/mL bovine insulin in 25 cm^2 or 75 cm^2 plastic tissue culture flasks in a 37 °C incubator with 5% CO2. […] The culture medium was removed, and the cells were washed twice with ice cold PBS. […] The protein concentration was measured using the BCA protein assay kit. […]
Could you please report measured DC50 for the items listed next?

I have this compound here, CC1(C)CC(=C(c2ccc(N3CCC4(CC3)CC(N3CCN(c5ccc6c(c5)CN(C5CCC(=O)NC5=O)C6=O)CC3)C4)nc2)c2ccc3[nH]nc(F)c3c2)CC(C)(C)O1 (racemic) , and I need its recorded DC50.
< 10 nM

I have this compound here, CC1(C)CC(=C(c2ccc(N3CCC(CN4CCN(c5ccc6c(c5)CN(C5CCC(=O)NC5=O)C6=O)CC4)CC3)nc2)c2ccc3c(F)n[nH]c3c2)CC(C)(C)O1 (stereo not drawn) , and I need its recorded DC50.
10 to 100 nM

I have this compound here, CC1(C)CC(=C(c2ccc(N3CCC(CN4CCN(c5ccc(NC6CCC(=O)NC6=O)cc5)CC4)CC3)nc2)c2ccc3[nH]nc(F)c3c2)CC(C)(C)O1 (stereo not drawn) , and I need its recorded DC50.
> 100 nM

I have this compound here, CC1(C)CC(=C(c2ccc(N3CCN(C4CN(c5ccc6c(c5)C(=O)N(C5CCC(=O)NC5=O)C6=O)C4)CC3)nc2)c2ccc3[nH]nc(F)c3c2)CC(C)(C)O1 (stereo not drawn) , and I need its recorded DC50.
> 100 nM

I have this compound here, CC1(C)CC(=C(c2ccc(N3CCC(CN4CCC(N5Cc6cc7c(cc6C5)C(=O)N(C5CCC(=O)NC5=O)C7)CC4)CC3)nc2)c2ccc3[nH]nc(F)c3c2)CC(C)(C)O1 (stereo not drawn) , and I need its recorded DC50.
< 10 nM

I have this compound here, CC1(C)CC(=C(c2ccc(N3CCC(F)(CNC4CCN(c5ccc6c(c5)CN(C5CCC(=O)NC5=O)C6=O)CC4)CC3)nc2)c2ccc3[nH]nc(F)c3c2)CC(C)(C)O1 (stereo not drawn) [Compound 61] , and I need its recorded DC50.
< 10 nM

I have this compound here, CC1(C)CC(=C(c2ccc(N3CCC(CNC4CCN(c5ccc6c(c5)CN(C5CCC(=O)NC5=O)C6=O)CC4)CC3)nc2)c2ccc3[nH]nc(F)c3c2)CC(C)(C)O1 (stereo not drawn) , and I need its recorded DC50.
< 10 nM

I have this compound here, CC1(C)CC(=C(c2ccc(N3CCC4(CC3)CN(C3CCN(c5ccc6c(c5)CN([C@H]5CCC(=O)NC5=O)C6=O)CC3)C4)nc2)c2ccc3[nH]nc(F)c3c2)CC(C)(C)O1 , and I need its recorded DC50.
< 10 nM

I have this compound here, CC1(C)CC(=C(c2ccc(N3CCC(CN4CCN(c5ccc(C(=O)N[C@H]6CCC(=O)NC6=O)c(F)c5)CC4)CC3)nc2)c2ccc3[nH]nc(F)c3c2)CC(C)(C)O1 , and I need its recorded DC50.
< 10 nM

I have this compound here, CN(CC1CCN(c2ccc(C(=C3CC(C)(C)OC(C)(C)C3)c3ccc4[nH]nc(F)c4c3)cn2)CC1)C1CCN(c2ccc3c(c2)CN(C2CCC(=O)NC2=O)C3=O)CC1 (stereo not drawn) , and I need its recorded DC50.
10 to 100 nM

I have this compound here, CC1(C)CC(=C(c2ccc(N3CCC(F)(CNC4CCN(c5ccc6c(c5)CN(C5CCC(=O)NC5=O)C6=O)CC4)CC3)nc2)c2ccc3[nH]nc(F)c3c2)CC(C)(C)O1 (stereo not drawn) [Compound 48] , and I need its recorded DC50.
< 10 nM

I have this compound here, CC1(C)CC(=C(c2ccc(N3CCC(CN4CCN(c5ccc(N6CCC(=O)NC6=O)cc5)CC4)CC3)cc2)c2ccc3[nH]nc(F)c3c2)CC(C)(C)O1 , and I need its recorded DC50.
10 to 100 nM

I have this compound here, CC1(C)CC(=C(c2ccc(N3CCC(CN4CCN(c5cccc(N6CCC(=O)NC6=O)c5)CC4)CC3)nc2)c2ccc3[nH]nc(F)c3c2)CC(C)(C)O1 , and I need its recorded DC50.
> 100 nM

I have this compound here, CC1(C)CC(=C(c2ccc(OC3CCN(C4CCN(c5ccc6c(c5)CN(C5CCC(=O)NC5=O)C6=O)CC4)CC3)nc2)c2ccc3[nH]nc(F)c3c2)CC(C)(C)O1 (stereo not drawn) , and I need its recorded DC50.
> 100 nM

I have this compound here, CC1(C)CC(=C(c2ccc3[nH]nc(F)c3c2)c2c(F)cc(N3CCN(C4CN(c5ccc6c(c5)C(=O)N(C5CCC(=O)NC5=O)C6=O)C4)CC3)cc2F)CC(C)(C)O1 (stereo not drawn) , and I need its recorded DC50.
> 100 nM

I have this compound here, Cn1nc(N2CCC(=O)NC2=O)c2ccc(C3CCN(CC(=O)N4CC5(C4)CN(c4ccc(C(=C6CC(C)(C)OC(C)(C)C6)c6ccc7[nH]nc(F)c7c6)cn4)C5)CC3(F)F)cc21 (stereo not drawn) , and I need its recorded DC50.
> 100 nM

I have this compound here, CC1(C)CC(=C(c2ccc(N3CCC4(CC3)CN(C3CCN(c5ccc6c(c5)CN(C5CCC(=O)NC5=O)C6=O)CC3)C4)nc2)c2ccc3[nH]nc(F)c3c2)CC(C)(C)O1 (stereo not drawn) , and I need its recorded DC50.
< 10 nM

I have this compound here, CC1(C)CC(=C(c2ccc3[nH]nc(F)c3c2)c2c(F)cc(N3CCN(CC4CN(c5ccc6c(c5)C(=O)N(C5CCC(=O)NC5=O)C6=O)C4)CC3)cc2F)CC(C)(C)O1 (stereo not drawn) , and I need its recorded DC50.
> 100 nM
